molecular target: T1, human IL-4Rα (hIL-4Rα) monomeric protein (human, UniProt P24394 26-232, limits assumed); assay: Biacore (SPR); negative log10 of Kd
T1 construct: also called hIL-4Rα antigen; barcoded hIL-4Rα
recorded.metric: negLog10Kd
Give bare numbers.

Table 1 Line # 49 antibody (SP_Plasma_cell) (antibody, human IgG4, V domains shown, Cloned with human IgG4/human Igk constants for Kd; barcode counts are of the source cell's own IgG) VH: EVHLLESGGGFIQPGGSLRLSCAASGFTFSTYAMNWVRLAPGKGLEWVSTISGSGGFTSYTDSVQGRFTISRDNSKNKLYLQINNLTAEDTAVYYCAKDRRIVGATGFDYWGQGALVTVSS VL: DIQMTQSPSSLSASAGDRVTITCRASQSISSYLNWYQQKPGKAPKLLIYAASSLQSGVPSRFSGSGSGTDFTLTISSLQPEDSATYYCQQSYGFHTFGQGTRLEIK :: 6.88
Table 1 Line # 6 antibody (BM_Plasma_cell) (antibody, human IgG4, V domains shown, Cloned with human IgG4/human Igk constants for Kd; barcode counts are of the source cell's own IgG) VH: EVQLVESGGDLVQPGRSLRLSCAASGFTFDDYAMHWVRQAPGKGLEWVSGISWNGNSLGYVDSVKGRFTVSRDNAKNSLYLQMNSLRAEDTALYYCTKDTGSYHSYYGLDVWGQGTTVTVSS VL: DIQMTQSPSSLSASVGDRVTITCRASQGIRNDLGWYQQKPGKAPKRLIYAASSLPSGVPSRFSGSGSGTEFTLTISSLQPEDFATYYCLQLNTYPLTFGGGTKVEIK :: 6.87
Table 1 Line # 54 antibody (SP_Plasma_cell) (antibody, human IgG4, V domains shown, Cloned with human IgG4/human Igk constants for Kd; barcode counts are of the source cell's own IgG) VH: QVQLVQSGAEVKKPGASVKVSCKASGYTFTNYGISWVRQAPGQGLEWMGWISVYNGNTNYAQKLQGRVTMTTDTSTSTAYMEVRSLRSDDTAVYYCARGVNWNYVFDYWGQGTLVTVSS VL: DIQMTQSPSSLSASVGDRVTITCRASQGIRNDLGWYQQKPGKAPKRLIYVVSSLQSGVPSRFSGSGSGTEFTLTISSLQPEDFATYYCLQHNSYPWTFGQGTKVEIK :: 7.87
Table 1 Line # 1 antibody (BM_Plasma_cell) (antibody, human IgG4, V domains shown, Cloned with human IgG4/human Igk constants for Kd; barcode counts are of the source cell's own IgG) VH: EVQLVESGGGLVKPGGSLRLSCAASGFTFSSYSMNWVRQAPGKGLEWVSSISSSSSYIYYADSVKGRFTISRDNAKNSLYLQMNSLRAEDTAVYYCASLAARPFWGQGTMVTVSS VL: DIQMTQSPSSVSASVGDRVTITCRASQGISSWLAWYQQKPGRAPKLLIYAASSLQSGVPSRFSGSGSGTDFTLTISSLQPEDFATYYCQQANSFPLTFGGGTKVEIK :: 6.38

Lab note: next binder to report on.
# negLog10Kd (binder: Table 1 Line # 15 antibody (BM_Plasma_cell) (antibody, human IgG4, V domains shown, Cloned with human IgG4/human Igk constants for Kd; barcode counts are of the source cell's own IgG) VH: EVQLVESGGALVQPGRSLRLSCAASGFAFDDYAMHWVRQAPGKGLEWVSGISWNGASLGYADSLKGRFTISRDNAKNSLYLQMNSLRSEDTALFYCARDYSSAWYGYFDYWGQGTLVTVSS VL: DIQMTQSPSSLSASVGDRVTITCRASQDISNYLAWYQQKPGKVPKLLIYAASTLQSGVPSRFSGSGSGTDFTLTISSLQPQDVATYYCQNYNSVPRTFGQGTKVEIK ) is 7.7
